Data provenance: the Human Domainome abundance scans (Beltran et al. 2025)

Catalogue of abundance fitness readings, one per entry.
B1: POU domain, class 2, transcription factor 3, residues 186 to 260; numbered along this chain, Q9UKI9 (parent)
chain: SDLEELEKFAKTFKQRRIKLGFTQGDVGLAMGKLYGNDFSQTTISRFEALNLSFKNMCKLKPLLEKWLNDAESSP

- Variants of: B1
- METHOD_SUMMARY: abundance fitness (aPCA) (normalised: wild type 0, dead -1); higher = more abundant; growth selection in yeast, the domain comes from the species named
- CONDITION_SUMMARY: Homo sapiens
ASSAY_READOUT: abundance fitness

>>> recorded_result("Q24A")
-0.451
>>> recorded_result("Q41E")
0.026
>>> recorded_result("L52N")
-0.444
>>> recorded_result("N51D")
-0.008
>>> recorded_result("F22S")
-0.282
>>> recorded_result("E5H")
0.029
>>> recorded_result("L60I")
-0.067
>>> recorded_result("F22L")
0.065
>>> recorded_result("M57T")
-0.25
>>> recorded_result("D70E")
0.027
>>> recorded_result("P75K")
-0.128
>>> recorded_result("E48W")
-1.17
>>> recorded_result("Q41I")
-0.072
>>> recorded_result("E5N")
-0.031
>>> recorded_result("S74W")
-0.059
>>> recorded_result("C58R")
0
>>> recorded_result("I18A")
-0.056
>>> recorded_result("E72Q")
-0.026
>>> recorded_result("E5F")
-0.102
>>> recorded_result("E48Q")
-1.16
>>> recorded_result("N69E")
0.002
>>> recorded_result("C58F")
0.005
